Molecular target: T1, human αvβ3 integrin ITGAVB3 (human, UniProt P06756 31-992; P05106 27-718, limits assumed)
T1 construct: Recombinant heterodimer used as immunogen, ELISA coating and SPR ligand; also called A5B3; A5b3
T1 sequence (P06756 31-992 limits assumed, chain 1 of 2): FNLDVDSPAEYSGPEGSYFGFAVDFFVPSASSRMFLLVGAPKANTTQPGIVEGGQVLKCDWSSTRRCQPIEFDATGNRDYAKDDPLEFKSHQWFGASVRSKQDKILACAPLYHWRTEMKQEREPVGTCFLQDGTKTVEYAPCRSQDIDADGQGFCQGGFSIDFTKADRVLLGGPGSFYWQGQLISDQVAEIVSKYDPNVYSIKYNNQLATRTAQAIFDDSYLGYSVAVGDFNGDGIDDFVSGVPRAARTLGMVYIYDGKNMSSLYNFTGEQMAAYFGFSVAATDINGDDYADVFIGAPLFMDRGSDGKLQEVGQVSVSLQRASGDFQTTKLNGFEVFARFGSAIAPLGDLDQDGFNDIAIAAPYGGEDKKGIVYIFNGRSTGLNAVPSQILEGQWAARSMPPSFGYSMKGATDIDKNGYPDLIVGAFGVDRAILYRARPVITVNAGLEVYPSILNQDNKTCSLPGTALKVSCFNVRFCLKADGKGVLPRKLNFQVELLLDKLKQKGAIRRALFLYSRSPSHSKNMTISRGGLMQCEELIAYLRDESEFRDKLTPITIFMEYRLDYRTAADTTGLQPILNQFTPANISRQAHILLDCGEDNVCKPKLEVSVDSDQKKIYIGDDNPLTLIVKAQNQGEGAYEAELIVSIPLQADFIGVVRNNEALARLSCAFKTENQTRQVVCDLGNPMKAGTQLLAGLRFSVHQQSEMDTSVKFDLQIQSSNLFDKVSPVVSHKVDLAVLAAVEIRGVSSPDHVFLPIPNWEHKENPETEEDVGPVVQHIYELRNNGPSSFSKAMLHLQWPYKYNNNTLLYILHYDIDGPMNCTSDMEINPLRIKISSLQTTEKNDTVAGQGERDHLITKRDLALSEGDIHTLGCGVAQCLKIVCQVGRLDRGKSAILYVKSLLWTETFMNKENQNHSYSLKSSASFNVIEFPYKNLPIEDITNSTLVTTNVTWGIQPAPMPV
T1 sequence (P05106 27-718 limits assumed, chain 2 of 2): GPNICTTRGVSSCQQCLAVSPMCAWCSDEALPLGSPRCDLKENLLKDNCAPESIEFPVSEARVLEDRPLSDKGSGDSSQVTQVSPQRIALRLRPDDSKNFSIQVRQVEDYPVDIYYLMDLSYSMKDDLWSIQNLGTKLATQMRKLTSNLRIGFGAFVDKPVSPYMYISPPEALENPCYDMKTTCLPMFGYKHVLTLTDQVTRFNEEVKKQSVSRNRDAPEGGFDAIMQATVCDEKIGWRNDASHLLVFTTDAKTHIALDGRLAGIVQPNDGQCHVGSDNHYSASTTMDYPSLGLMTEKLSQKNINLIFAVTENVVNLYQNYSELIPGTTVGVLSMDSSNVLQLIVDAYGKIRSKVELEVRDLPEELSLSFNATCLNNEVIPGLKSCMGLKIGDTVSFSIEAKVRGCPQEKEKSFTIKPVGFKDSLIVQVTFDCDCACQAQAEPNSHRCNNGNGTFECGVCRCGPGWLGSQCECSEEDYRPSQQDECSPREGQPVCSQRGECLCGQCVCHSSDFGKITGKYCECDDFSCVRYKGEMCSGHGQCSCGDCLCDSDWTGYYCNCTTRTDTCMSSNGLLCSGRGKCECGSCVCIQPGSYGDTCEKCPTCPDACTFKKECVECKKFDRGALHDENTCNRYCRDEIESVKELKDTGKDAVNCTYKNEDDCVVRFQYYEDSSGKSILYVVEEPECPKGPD
Assay: phage ELISA, coated ITGAVB3, anti-M13-HRP, 490 nm
REPORTED METRIC: OD490
API note: the answer field is a bare number with no unit suffix.

Ask: Param item = clone 19 (VHH) VHH: EVQLVESGGGSVQPGESLRLSCVASGYTVSSSCMAWFRQAPGKEREVVATIVVTSDTTSTFYADSVKGRFTISPDNAKNTLNLQMNSLEPSDTAMYYCAADRKWNVCSRGYRYTPNWANQFTFWGQGTQVTVSS ; retrieve measured OD490.
Reply: 1.94

Ask: Also need VHH-25 (VHH, also called clone 25) VHH: EVQLVESGGGSVQAGGSLRLSCVVSGYTCSVYDMIWYRQPPGKEREFVSLINSNGRTTYADSVKGRFTISQNNAKNTVYLQMNSLKPEDTAMYYCHAACYSPSRLNYWGQGTQVTVSS , thanks.
Reply: 2.03

Ask: Also need VHH-12 (VHH, also called clone 12) VHH: EVQLVESGGGSVQPGESLRLSCVASGYTVSSSCMAWFRQAPGKEREVVATIVVTSDTTSTFYADSVKGRFTISPDNAKNTLNLQMNSLEPSDTAMYYCAADRKWNVCSRGYRYTPNWANQFTFWGQGTQVTVSS , thanks.
Reply: 2.06

Ask: Also need clone 37 (VHH) VHH: HVQLVESGGGSVQTGGSLRLSCAASGYTSSTVYMAWFRQTPGKQREGVAAIYTGGGPTYYADSVKGRFTISQDNAKNTVYLQMNTLKPEDTAMYYCAADRYVYRLVTNWYRPSFYTYWGQGTQVTVSS , thanks.
Reply: 2.09
